I'd be grateful if you could share measured hGLP1R β-arrestin Rel EC50 for these entries.
- ASSAY_SYSTEM: Pro-Link-tagged Human GLP-1R (human) (UniProt P43220)
- Sequence (P43220 24-463): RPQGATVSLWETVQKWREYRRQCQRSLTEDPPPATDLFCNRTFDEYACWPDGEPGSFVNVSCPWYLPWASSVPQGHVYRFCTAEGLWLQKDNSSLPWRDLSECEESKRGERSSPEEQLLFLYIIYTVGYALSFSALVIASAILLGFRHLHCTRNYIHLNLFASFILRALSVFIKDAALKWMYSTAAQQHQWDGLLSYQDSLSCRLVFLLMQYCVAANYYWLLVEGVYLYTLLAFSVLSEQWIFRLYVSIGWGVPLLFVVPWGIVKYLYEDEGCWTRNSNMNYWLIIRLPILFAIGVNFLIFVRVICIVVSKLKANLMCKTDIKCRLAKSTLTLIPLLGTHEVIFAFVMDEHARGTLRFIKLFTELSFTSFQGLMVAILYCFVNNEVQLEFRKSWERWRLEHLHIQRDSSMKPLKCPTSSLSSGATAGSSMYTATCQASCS
- TEST_DESCRIPTION: cell-based or functional assay
Starred links: 1 amine or outer side, 2 acyl side, 3 side chain; linkers in the order of their positions; H or OH if unused. Non-standard residues stand in square brackets, D forms with d. Groups on a side chain read outwards from the residue. No end group written: not given here. *: point of attachment. C20 diacid = O=C(O)CCCCCCCCCCCCCCCCCCC(=O)*; Phe(4-CN) = N#Cc1ccc(C[C@H](N)C(=O)O)cc1; αMePhe(2-F) = C[C@](N)(Cc1ccccc1F)C(=O)O; γGlu = O=C(O)[C@H](CCC(=O)[*:2])N[*:1]; NMeY = CN[C@@H](Cc1ccc(O)cc1)C(=O)O; αMeF = C[C@](N)(Cc1ccccc1)C(=O)O; αMeL = CC(C)C[C@](C)(N)C(=O)O; Orn = NCCC[C@H](N)C(=O)O; AEEA = NCCOCCOCC(=O)O; Aib = CC(C)(N)C(=O)O
// units = µM; emit number, no label

Exam item: # hGLP1R β-arrestin Rel EC50 lookup, item Y[Aib]QGT[αMePhe(2-F)]TSD[Phe(4-CN)]SILLDKQAQK([AEEA-AEEA-γGlu-C20 diacid])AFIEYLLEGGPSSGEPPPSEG-NH2 [Example 321]
Marked response: 0.00878

Exam item: Likewise for Y[Aib]QGT[αMeF]TSDYSILLDKIAAKNFIEYLVEGGPSSGEPPPSEG-NH2 (not fully specified (residue 20)) [Example 307] ?
Marked response: 0.00986

Exam item: Likewise for Y[Aib]QGTFTSDYSI[αMeL]LDKIAAK([AEEA-AEEA-γGlu-C20 diacid])[Orn]FVQYLIAGGPSSGEPPPSEG-NH2 [Example 308] ?
Marked response: 0.0169

Exam item: Likewise for Y[Aib]QGTFTSDYSK[αMeL]LDKK([AEEA-γGlu-C20 diacid])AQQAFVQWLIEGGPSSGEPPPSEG-NH2 [Example 315] ?
Marked response: 0.00376

Exam item: Likewise for Y[Aib]QGTFTSDYSI[αMeL]LDKIAAK([AEEA-AEEA-γGlu-C20 diacid])QFVQWLIE[Aib]GPSSGEPPPSEG-NH2 (ends and bridges not checked) [Example 323] ?
Marked response: 0.0108

Exam item: Likewise for [NMeY][Aib]QGT[αMeF]TSDYSILLDKQAAK([AEEA-AEEA-γGlu-C20 diacid])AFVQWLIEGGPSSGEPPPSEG-NH2 [Example 302] ?
Marked response: 0.0112

Exam item: Likewise for Y[Aib]QGT[αMePhe(2-F)]TSDYSKLLDKQAQK([AEEA-γGlu-C20 diacid])QFIEYLIEGGPSSGEPPPSEG-NH2 [Example 309] ?
Marked response: 0.00672

Exam item: Likewise for Y[Aib]QGT[αMePhe(2-F)]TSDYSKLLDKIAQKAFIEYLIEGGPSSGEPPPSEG-NH2 (not fully specified (residue 20)) [Example 304] ?
Marked response: 0.00921

Exam item: Likewise for Y[Aib]QGT[αMePhe(2-F)]TSDYSILLDKIAAK([AEEA-γGlu-C20 diacid])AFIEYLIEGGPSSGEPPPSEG-NH2 [Example 296] ?
Marked response: 0.014
